# assay_system: T1, CNTF receptor-α (CNTFRα) (UniProt P26992 23-342, limits assumed)
# T1 construct: also called CNTFRa; CNTF a-receptor
# T1 sequence (looked up): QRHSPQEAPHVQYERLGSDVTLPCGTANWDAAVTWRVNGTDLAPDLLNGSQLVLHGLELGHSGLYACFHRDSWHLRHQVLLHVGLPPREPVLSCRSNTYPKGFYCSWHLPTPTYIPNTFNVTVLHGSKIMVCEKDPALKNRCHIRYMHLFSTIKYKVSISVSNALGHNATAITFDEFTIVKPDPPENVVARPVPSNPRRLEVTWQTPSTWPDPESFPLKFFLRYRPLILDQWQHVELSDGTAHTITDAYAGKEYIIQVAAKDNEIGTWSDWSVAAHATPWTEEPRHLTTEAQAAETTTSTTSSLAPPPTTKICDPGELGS
# protocol_summary: solid phase binding assay on CNTFRα
# Protocol: The relative binding affinities to CNTF receptor-α (CNTFRα) of hCNTF and different hCNTF variants were determined by solid phase binding assay as previously described (10). […] These variants, like DH-CNTF, have increased utility for treatment of obesity and associated diseases, such as diabetes.
Entries and their measured Relative Binding (hCNTF = 1) follow.
quantity_name: Relative Binding (hCNTF = 1)

>>> result("(Ser166Asp/Gln167Ala/Arg177Phe) hCNTF (ligand) MAFTEHSPLTPHRRDLCSRSIWLARKIRSDLTALTESYVKHQGLNKNINLDSADGMPVASTDQWSELTEAERLQENLQAYRTFHVLLARLLEDQQVHFTPTEGDFHQAIHTLLLQVAAFAYQIEELMILLEYKIPRNEADGMPINVGDGGLFEKKLWGLKVLQELDAWTVRSIHDLFFISSHQTGIPARGSHYIANNKKM")
"13.1 relative (hCNTF = 1)"
>>> result("(Gln167Ala/His174Ala) hCNTF (ligand) MAFTEHSPLTPHRRDLCSRSIWLARKIRSDLTALTESYVKHQGLNKNINLDSADGMPVASTDQWSELTEAERLQENLQAYRTFHVLLARLLEDQQVHFTPTEGDFHQAIHTLLLQVAAFAYQIEELMILLEYKIPRNEADGMPINVGDGGLFEKKLWGLKVLQELSAWTVRSIADLRFISSHQTGIPARGSHYIANNKKM")
"3.6 relative (hCNTF = 1)"
>>> result("(Gln167Ala) hCNTF (ligand) MAFTEHSPLTPHRRDLCSRSIWLARKIRSDLTALTESYVKHQGLNKNINLDSADGMPVASTDQWSELTEAERLQENLQAYRTFHVLLARLLEDQQVHFTPTEGDFHQAIHTLLLQVAAFAYQIEELMILLEYKIPRNEADGMPINVGDGGLFEKKLWGLKVLQELSAWTVRSIHDLRFISSHQTGIPARGSHYIANNKKM")
"9 relative (hCNTF = 1)"
>>> result("(Thr169Ile/His174Ala) hCNTF (ligand, also called (Thr169Ile/His174Ala) hCNTP) MAFTEHSPLTPHRRDLCSRSIWLARKIRSDLTALTESYVKHQGLNKNINLDSADGMPVASTDQWSELTEAERLQENLQAYRTFHVLLARLLEDQQVHFTPTEGDFHQAIHTLLLQVAAFAYQIEELMILLEYKIPRNEADGMPINVGDGGLFEKKLWGLKVLQELSQWIVRSIADLRFISSHQTGIPARGSHYIANNKKM")
"0.07 relative (hCNTF = 1)"
>>> result("(Gln167Ala/Thr169Leu) hCNTF (ligand) MAFTEHSPLTPHRRDLCSRSIWLARKIRSDLTALTESYVKHQGLNKNINLDSADGMPVASTDQWSELTEAERLQENLQAYRTFHVLLARLLEDQQVHFTPTEGDFHQAIHTLLLQVAAFAYQIEELMILLEYKIPRNEADGMPINVGDGGLFEKKLWGLKVLQELSAWLVRSIHDLRFISSHQTGIPARGSHYIANNKKM")
"9.6 relative (hCNTF = 1)"
>>> result("(Val170Arg/His174Ala) hCNTF (ligand) MAFTEHSPLTPHRRDLCSRSIWLARKIRSDLTALTESYVKHQGLNKNINLDSADGMPVASTDQWSELTEAERLQENLQAYRTFHVLLARLLEDQQVHFTPTEGDFHQAIHTLLLQVAAFAYQIEELMILLEYKIPRNEADGMPINVGDGGLFEKKLWGLKVLQELSQWTRRSIADLRFISSHQTGIPARGSHYIANNKKM")
"3.3 relative (hCNTF = 1)"
>>> result("(Gln167Ala/Thr169Ser) hCNTF (ligand) MAFTEHSPLTPHRRDLCSRSIWLARKIRSDLTALTESYVKHQGLNKNINLDSADGMPVASTDQWSELTEAERLQENLQAYRTFHVLLARLLEDQQVHFTPTEGDFHQAIHTLLLQVAAFAYQIEELMILLEYKIPRNEADGMPINVGDGGLFEKKLWGLKVLQELSAWSVRSIHDLRFISSHQTGIPARGSHYIANNKKM")
"6.9 relative (hCNTF = 1)"
>>> result("(Phe152Ala/Ser166Asp/Gln167His) hCNTF (ligand) MAFTEHSPLTPHRRDLCSRSIWLARKIRSDLTALTESYVKHQGLNKNINLDSADGMPVASTDQWSELTEAERLQENLQAYRTFHVLLARLLEDQQVHFTPTEGDFHQAIHTLLLQVAAFAYQIEELMILLEYKIPRNEADGMPINVGDGGLAEKKLWGLKVLQELDHWTVRSIHDLRFISSHQTGIPARGSHYIANNKKM")
"32 relative (hCNTF = 1)"
>>> result("(Ser166His/Gln167Ala) hCNTF (ligand) MAFTEHSPLTPHRRDLCSRSIWLARKIRSDLTALTESYVKHQGLNKNINLDSADGMPVASTDQWSELTEAERLQENLQAYRTFHVLLARLLEDQQVHFTPTEGDFHQAIHTLLLQVAAFAYQIEELMILLEYKIPRNEADGMPINVGDGGLFEKKLWGLKVLQELHAWTVRSIHDLRFISSHQTGIPARGSHYIANNKKM")
"8.8 relative (hCNTF = 1)"
>>> result("(Gln167Ala/Arg177Leu) hCNTF (ligand) MAFTEHSPLTPHRRDLCSRSIWLARKIRSDLTALTESYVKHQGLNKNINLDSADGMPVASTDQWSELTEAERLQENLQAYRTFHVLLARLLEDQQVHFTPTEGDFHQAIHTLLLQVAAFAYQIEELMILLEYKIPRNEADGMPINVGDGGLFEKKLWGLKVLQELSAWTVRSIHDLLFISSHQTGIPARGSHYIANNKKM")
"11.7 relative (hCNTF = 1)"
>>> result("(Ser166Asp/Gln167Ala/Thr169Leu) hCNTF (ligand) MAFTEHSPLTPHRRDLCSRSIWLARKIRSDLTALTESYVKHQGLNKNINLDSADGMPVASTDQWSELTEAERLQENLQAYRTFHVLLARLLEDQQVHFTPTEGDFHQAIHTLLLQVAAFAYQIEELMILLEYKIPRNEADGMPINVGDGGLFEKKLWGLKVLQELDAWLVRSIHDLRFISSHQTGIPARGSHYIANNKKM")
"21 relative (hCNTF = 1)"
